Reference source: ChEMBL document CHEMBL1144524

measured on: Androgen receptor (Homo sapiens, UniProt P10275)
Sequence (P10275 whole entry): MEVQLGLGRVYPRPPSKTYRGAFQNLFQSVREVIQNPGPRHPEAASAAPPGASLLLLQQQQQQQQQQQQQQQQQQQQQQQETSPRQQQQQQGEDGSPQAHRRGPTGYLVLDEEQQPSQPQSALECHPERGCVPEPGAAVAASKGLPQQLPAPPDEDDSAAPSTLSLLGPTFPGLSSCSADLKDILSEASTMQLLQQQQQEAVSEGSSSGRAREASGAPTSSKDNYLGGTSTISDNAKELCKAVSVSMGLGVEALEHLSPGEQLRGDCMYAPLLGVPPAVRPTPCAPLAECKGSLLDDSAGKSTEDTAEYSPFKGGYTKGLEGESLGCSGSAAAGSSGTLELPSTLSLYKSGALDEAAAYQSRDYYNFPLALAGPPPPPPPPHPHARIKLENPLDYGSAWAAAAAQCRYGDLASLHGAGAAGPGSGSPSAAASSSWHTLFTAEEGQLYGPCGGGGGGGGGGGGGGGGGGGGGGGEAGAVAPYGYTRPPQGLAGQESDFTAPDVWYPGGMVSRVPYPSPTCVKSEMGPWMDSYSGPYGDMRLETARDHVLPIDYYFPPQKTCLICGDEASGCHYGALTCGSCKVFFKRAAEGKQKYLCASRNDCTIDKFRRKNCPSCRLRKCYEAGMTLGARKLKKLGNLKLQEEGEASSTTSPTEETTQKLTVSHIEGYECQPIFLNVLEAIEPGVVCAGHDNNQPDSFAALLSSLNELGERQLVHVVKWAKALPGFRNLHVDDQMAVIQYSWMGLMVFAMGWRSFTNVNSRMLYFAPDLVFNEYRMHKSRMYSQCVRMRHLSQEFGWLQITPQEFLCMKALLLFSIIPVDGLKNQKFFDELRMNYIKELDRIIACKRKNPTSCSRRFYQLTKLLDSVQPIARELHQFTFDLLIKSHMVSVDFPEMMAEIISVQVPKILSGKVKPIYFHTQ
assay overview: biochemical
Description: Displacement of [3H]mibolerone from androgen receptor expressed in CHOK1 cells
pIC50: −log10 of the molar value.
Below, each entry is listed with its recorded pIC50.
reported property: pIC50

[[record]]
molecule = "CCN(C)C(=O)CCCCCCCC1C[C@H]2CC(=O)CC[C@]2(C)[C@H]2CC[C@]3(C)[C@@H](O)CC[C@H]3[C@H]12 (stereo not given in full)"
measured_on = "Androgen receptor (Homo sapiens, UniProt P10275)"
prefix_operator = "="
reported_result = 6.18

[[record]]
molecule = "CCNC(=O)CCCCCCCC1C[C@H]2CC(=O)CC[C@]2(C)[C@H]2CC[C@]3(C)[C@@H](O)CC[C@H]3[C@H]12 (stereo not given in full)"
measured_on = "Androgen receptor (Homo sapiens, UniProt P10275)"
prefix_operator = "="
reported_result = 5.82

[[record]]
molecule = "C[C@]12CC[C@H]3[C@@H]([C@H](CCCCCCCCCCCCC[S+]([O-])CCCC(F)(F)C(F)(F)F)CC4CC(=O)CC[C@@]43C)[C@@H]1CC[C@@H]2O (stereo not given in full)"
measured_on = "Androgen receptor (Homo sapiens, UniProt P10275)"
prefix_operator = "<"
reported_result = 5.00

[[record]]
molecule = "CCCCCCNC(=O)CCCCCCCC1C[C@H]2CC(=O)CC[C@]2(C)[C@H]2CC[C@]3(C)[C@@H](O)CC[C@H]3[C@H]12 (stereo not given in full)"
measured_on = "Androgen receptor (Homo sapiens, UniProt P10275)"
prefix_operator = "="
reported_result = 5.68

[[record]]
molecule = "C[C@]12CCC(=O)C[C@@H]1CC(CCCCCCCC(=O)N1CCCC1)[C@@H]1[C@@H]2CC[C@]2(C)[C@@H](O)CC[C@@H]12 (stereo not given in full)"
measured_on = "Androgen receptor (Homo sapiens, UniProt P10275)"
prefix_operator = "="
reported_result = 6.46

[[record]]
molecule = "CCCCN(C)C(=O)CCCCCCCCC[C@@H]1CC2CC(=O)CC[C@]2(C)[C@H]2CC[C@]3(C)[C@@H](O)CC[C@H]3[C@H]12 (stereo not given in full)"
measured_on = "Androgen receptor (Homo sapiens, UniProt P10275)"
prefix_operator = "="
reported_result = 6.24

[[record]]
molecule = "C[C@]12CC[C@H]3[C@@H]([C@H](CCCCCCCCC[S+]([O-])CCCC(F)(F)C(F)(F)F)CC4CC(=O)CC[C@@]43C)[C@@H]1CC[C@@H]2O (stereo not given in full)"
measured_on = "Androgen receptor (Homo sapiens, UniProt P10275)"
prefix_operator = "="
reported_result = 6.96

[[record]]
molecule = "CCCN(C)C(=O)CCCCCCCC1C[C@H]2CC(=O)CC[C@]2(C)[C@H]2CC[C@]3(C)[C@@H](O)CC[C@H]3[C@H]12 (stereo not given in full)"
measured_on = "Androgen receptor (Homo sapiens, UniProt P10275)"
prefix_operator = "="
reported_result = 6.52

[[record]]
molecule = "CC(C)N(C)C(=O)CCCCCCCC1C[C@H]2CC(=O)CC[C@]2(C)[C@H]2CC[C@]3(C)[C@@H](O)CC[C@H]3[C@H]12 (stereo not given in full)"
measured_on = "Androgen receptor (Homo sapiens, UniProt P10275)"
prefix_operator = "="
reported_result = 6.37

[[record]]
molecule = "C[C@]12CCC(=O)C[C@@H]1CC(CCCCCCCC(N)=O)[C@@H]1[C@@H]2CC[C@]2(C)[C@@H](O)CC[C@@H]12 (stereo not given in full)"
measured_on = "Androgen receptor (Homo sapiens, UniProt P10275)"
prefix_operator = "="
reported_result = 6.59

